Entries and their growth values follow.
Tested on: 786-0 renal
method.summary: NCI-60 one-dose screen, 48 h (100 = growth as untreated, 0 = no growth, -100 = all killed)
recorded.conditions: 10 µM unless noted
This is part of a sample that, as a whole, favours compounds with a hit. Of some 83,000 tested, about 20% had one in any assay. Calls of active or inactive are those of the source. Rule for the calls: active = growth percent below 10; inactive = the rest.

In the examples that follow, each entry is paired with its recorded growth.
| compound | growth |
| --- | --- |
| C#Cc1cccc(NC(=O)Nc2ccc(NC(=O)CCl)cc2)c1 | -71.5% [8.25 µM] (active) |
| COc1ccc(C(=O)c2cc(C)c(OC)c(C)c2)c(OC)c1N(C(=O)C(Cl)Cl)C(=O)C(Cl)Cl | 14.1% (inactive) |
| CN1CCN(C(=O)OCc2nc3c(N4CCOCC4)nc(-c4ccccc4)nc3n2C)CC1 | -83.3% (active) |
| CC(=O)Nc1ccc(C(=O)Nc2cc(-c3ccccc3)ccc2N)cc1 | 97.9% (inactive) |
| CC1(C)CN(c2cnc(C(=O)Nc3cc(F)cc4cccnc34)cn2)CCN1 | 78.9% (inactive) |

Ask | Fill in the blank: the reported growth of `O=C1NC(=S)NC(=O)C1=Cc1cn(Cc2ccccn2)c2ccccc12` is ____.
Reply | 43.9% (inactive)

Ask | Fill in the blank: the reported growth of CCCCCCCCCCCC(=O)C(CCCCCCCCCC)C(=O)Nc1ccccc1 (stereo not given) is ____.
Reply | 107% (inactive)

Ask | Fill in the blank: the reported growth of `C=C1C(=O)O[C@H]2[C@H]1CC/C(COC(=O)NCCc1c[nH]c3ccc(Cl)cc13)=C\CC[C@@]1(C)O[C@@H]21` is ____.
Reply | -78.7% (active)

Ask | Fill in the blank: the reported growth of `COc1ccc(C(=O)c2cc3c(N)c(C(=O)Nc4cccc(OC)c4)sc3nc2C)cc1` is ____.
Reply | 50.7% (inactive)

Ask | Fill in the blank: the reported growth of COc1cc(OC)cc(C2C3=C(COC3=O)Nc3cc(OC)ccc32)c1 (stereo not given) is ____.
Reply | 11% (inactive)

====

Test system: MCF7 breast
method.summary: NCI-60 one-dose screen, 48 h (100 = growth as untreated, 0 = no growth, -100 = all killed)
recorded.conditions: 10 µM unless noted
About 83,000 compounds went through this panel and 20% of them were active in at least one assay; those are over-represented in the sample as a whole. Active and inactive are the calls of the source. How the source made its calls: active means growth percent below 10; inactive means the rest.
measured.metric: growth

| compound | growth |
| --- | --- |
| C=C1C(=O)O[C@H]2[C@H]1CC/C(COC(=O)CCCCCC(=O)OC/C1=C/CC[C@@]3(C)O[C@H]3[C@H]3OC(=O)C(=C)[C@@H]3CC1)=C\CC[C@@]1(C)O[C@@H]21 | 12.8% (inactive) |
| CC1(C)[C@H](O)CC[C@]2(C)[C@@H]1CC[C@@]13C[C@@H](CC[C@H]12)[C@@](O)(CO)C3 | 99.3% (inactive) |
| CC(C)Cc1ccc(C(C)C(=O)NCc2c[nH]c3ccc(Cl)cc23)cc1 (stereo not drawn) | 89.5% (inactive) |
| CCN1C(=O)N(CC)C2NC(SC)=NC21 (stereo not drawn) | 99.3% (inactive) |
| CN1CCN(c2cc(F)c(NC3=C(Cl)C(=O)c4ncccc4C3=O)c(F)c2)CC1 | -58.2% (active) |
| COc1cc2nc(Cc3ccc(C)cc3)[nH]c(=O)c2cc1OC | 104% (inactive) |
| COc1ccc(C(=O)c2cc3c(N)c(C(=O)Nc4cccc(Cl)c4C)sc3nc2C)cc1 | 19.4% (inactive) |
| Nc1cc(N)c2cccnc2c1O | 46.3% (inactive) |
| C=Cc1cc[n+](CCCCCCCCCCCC)cc1 | 106% (inactive) |
| CC(C)(C)CC(C)(C)Nc1c(-c2ccc(C(F)(F)F)cc2)nc2cnccn12 | 66.5% (inactive) |

Ask | Fill in the blank: the reported growth of `CN(C)CCCn1c2c(c3ccc(-c4ccn[nH]4)cc3c1=O)C(=O)c1ccccc1-2` is ____.
Reply | 9.49% (active)

Ask | Fill in the blank: the reported growth of COC(=O)CCCCCCCCC1(C)C=CC(C(C)O)=CC1 (stereo not drawn) is ____.
Reply | 101% (inactive)

Ask | Fill in the blank: the reported growth of N#CSCC1CC(O)(c2ccccc2)C(c2ccccc2)C(c2ccc(F)cc2)O1 (stereo not drawn) is ____.
Reply | 5.64% (active)
